Method Summary: Inhibition of Escherichia coli topoisomerase 4 using supercoiled pBR322 DNA as substrate by agarose gel electrophorosis method
Setup Conditions: read-out: IC50
Item-by-item account of IC50
# output: bare number, implied unit µM

Examples with their reported IC50 follow.
- O=C(O)c1cn(C2CC2)c2cc(N3CCNCC3)c(F)cc2c1=O [CIPROFLOXACIN]: 8.6
- NC[C@H]1O[C@H](O[C@H]2[C@H](O)[C@@H](O[C@H]3O[C@H](CO)[C@@H](O)[C@H](N)[C@H]3O)[C@H](NCc3cn(Cc4ccc(CN5CCN(c6cc7c(cc6F)c(=O)c(C(=O)O)cn7C6CC6)CC5)cc4)nn3)C[C@@H]2N)[C@H](O)[C@@H](O)[C@@H]1O: 7.9

Q: So what's the measured IC50 for this one? NC[C@H]1O[C@H](O[C@H]2[C@H](O)[C@@H](O[C@H]3O[C@H](CO)[C@@H](O)[C@H](N)[C@H]3O)[C@H](NCc3cn(CC(O)CN4CCN(c5cc6c(cc5F)c(=O)c(C(=O)O)cn6C5CC5)CC4)nn3)C[C@@H]2N)[C@H](O)[C@@H](O)[C@@H]1O (some centres undefined)
Result: 19.8

----------
Method Summary: Inhibition of Escherichia coli DNA gyrase using relaxed pBR322 DNA as substrate by agarose gel electrophorosis method
Setup Conditions: read-out: IC50
Readout: pIC50
// field semantics: pIC50 = negative decimal log of concentration (mol/L)

• O=C(O)c1cn(C2CC2)c2cc(N3CCNCC3)c(F)cc2c1=O [CIPROFLOXACIN] = 5.89
• NC[C@H]1O[C@H](O[C@H]2[C@H](O)[C@@H](O[C@H]3O[C@H](CO)[C@@H](O)[C@H](N)[C@H]3O)[C@H](NC(=O)CCc3cn(CCN4CCN(c5cc6c(cc5F)c(=O)c(C(=O)O)cn6C5CC5)CC4)nn3)C[C@@H]2N)[C@H](O)[C@@H](O)[C@@H]1O = 5.00
• NC[C@H]1O[C@H](O[C@H]2[C@H](O)[C@@H](O[C@H]3O[C@H](CO)[C@@H](O)[C@H](N)[C@H]3O)[C@H](NCc3cn(CC(O)CN4CCN(c5cc6c(cc5F)c(=O)c(C(=O)O)cn6C5CC5)CC4)nn3)C[C@@H]2N)[C@H](O)[C@@H](O)[C@@H]1O (some centres undefined) = 5.23

Q: So what's the measured pIC50 for this one? NC[C@H]1O[C@H](O[C@H]2[C@H](O)[C@@H](O[C@H]3O[C@H](CO)[C@@H](O)[C@H](N)[C@H]3O)[C@H](NCc3cn(Cc4ccc(CN5CCN(c6cc7c(cc6F)c(=O)c(C(=O)O)cn7C6CC6)CC5)cc4)nn3)C[C@@H]2N)[C@H](O)[C@@H](O)[C@@H]1O
Result: 5.59

----------
System: Staphylococcus epidermidis
Method Summary: Antibacterial activity against aminoglycosides-susceptible Staphylococcus epidermidis by double microdilution method
Format: functional
// classify: if (MIC < 20 µg/mL) True else False

- NC[C@H]1O[C@H](O[C@H]2[C@H](O)[C@@H](O[C@H]3O[C@H](CO)[C@@H](O)[C@H](N)[C@H]3O)[C@H](NC(=O)CCc3cn(Cc4cccc(CN5CCN(c6cc7c(cc6F)c(=O)c(C(=O)O)cn7C6CC6)CC5)c4)nn3)C[C@@H]2N)[C@H](O)[C@@H](O)[C@@H]1O: True
- NC[C@H]1O[C@H](O[C@H]2[C@H](O)[C@@H](O[C@H]3O[C@H](CO)[C@@H](O)[C@H](N)[C@H]3O)[C@H](NC(=O)CCCc3cn(CC(O)CN4CCN(c5cc6c(cc5F)c(=O)c(C(=O)O)cn6C5CC5)CC4)nn3)C[C@@H]2N)[C@H](O)[C@@H](O)[C@@H]1O (stereo partly specified): False
- NC[C@H]1O[C@H](O[C@H]2[C@H](O)[C@@H](O[C@H]3O[C@H](CO)[C@@H](O)[C@H](N)[C@H]3O)[C@H](NC(=O)CCCc3cn(Cc4ccc(CN5CCN(c6cc7c(cc6F)c(=O)c(C(=O)O)cn7C6CC6)CC5)cc4)nn3)C[C@@H]2N)[C@H](O)[C@@H](O)[C@@H]1O: True
- NC[C@H]1O[C@H](O[C@H]2[C@H](O)[C@@H](O[C@H]3O[C@H](CO)[C@@H](O)[C@H](N)[C@H]3O)[C@H](NCc3cn(CC(O)CN4CCN(c5cc6c(cc5F)c(=O)c(C(=O)O)cn6C5CC5)CC4)nn3)C[C@@H]2N)[C@H](O)[C@@H](O)[C@@H]1O (stereo partly specified): True
- NC[C@H]1O[C@H](O[C@H]2[C@H](O)[C@@H](O[C@H]3O[C@H](CO)[C@@H](O)[C@H](N)[C@H]3O)[C@H](NC(=O)CCc3cn(CC(O)CN4CCN(c5cc6c(cc5F)c(=O)c(C(=O)O)cn6C5CC5)CC4)nn3)C[C@@H]2N)[C@H](O)[C@@H](O)[C@@H]1O (stereo partly specified): False

Now turn to the next compound.
Q: # TODO verify MIC < 20 µg/mL strictly for this compound: NC[C@H]1O[C@H](O[C@H]2[C@H](O)[C@@H](O[C@H]3O[C@H](CO)[C@@H](O)[C@H](N)[C@H]3O)[C@H](N)C[C@@H]2N)[C@H](O)[C@@H](O)[C@@H]1O
Result: True
